Recorded pEC50, one value per entry.
Molecular target: human GLP-1R receptor (Homo sapiens)
Sequence (P43220 24-463): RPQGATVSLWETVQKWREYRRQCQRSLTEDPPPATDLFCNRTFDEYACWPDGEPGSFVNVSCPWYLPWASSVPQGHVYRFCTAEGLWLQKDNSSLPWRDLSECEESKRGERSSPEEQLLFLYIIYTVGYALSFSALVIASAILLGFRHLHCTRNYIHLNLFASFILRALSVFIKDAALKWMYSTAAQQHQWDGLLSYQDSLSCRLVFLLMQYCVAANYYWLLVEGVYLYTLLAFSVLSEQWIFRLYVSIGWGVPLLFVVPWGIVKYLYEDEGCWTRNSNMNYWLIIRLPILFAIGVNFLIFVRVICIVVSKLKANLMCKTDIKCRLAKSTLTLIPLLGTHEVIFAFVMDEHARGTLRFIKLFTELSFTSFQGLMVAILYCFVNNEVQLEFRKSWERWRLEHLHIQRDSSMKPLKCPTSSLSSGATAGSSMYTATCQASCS
Assay: GLP-1R low expression cell assay (cAMP TR-FRET, CHO-K1_hGLP-1Rlow_clone10 cells)
Conditions: cAMP TR-FRET, 30 min at 25° C.
pEC50: −log10 of the molar value.
Property name: pEC50

>  <Molecule>
COc1cc(C(=O)O)cc2c1nc(CN1CCC(c3cccc4c3O[C@@H](c3ccc(C#N)cc3F)CO4)CC1)n2C

>  <Result value>
< 6.00

$$$$
>  <Molecule>
Cn1c(CN2CCC(c3cccc(OCc4ccc(Cl)cc4F)n3)CC2)nc2c(OC[C@@H]3CCO3)cc(C(=O)O)cc21

>  <Result value>
7.00 to 8.00

$$$$
>  <Molecule>
CC(CF)Oc1cc(C(=O)O)cc2c1nc(CN1CCC(c3cccc(OCc4ccc(Cl)cc4F)n3)CC1)n2C (single isomer, unassigned) [Compound 262]

>  <Result value>
7.00 to 8.00

$$$$
>  <Molecule>
Cn1c(CN2CCC(c3ccc(F)c(OCc4ccc(C#N)cc4F)n3)CC2)nc2c(OC(F)F)cc(C(=O)O)cc21

>  <Result value>
7.00 to 8.00

$$$$
>  <Molecule>
[2H]C([2H])(C)Oc1cc(C(=O)O)cc2c1nc(C([2H])([2H])N1CCC(c3cccc(OC([2H])([2H])c4ccc(Cl)cc4F)n3)CC1)n2C

>  <Result value>
> 8.00

$$$$
>  <Molecule>
[2H]C([2H])(Oc1cccc(C2CCN(Cc3nc4c(OC(F)F)cc(C(=O)O)cc4n3C)CC2)n1)c1ccc(Cl)cc1F

>  <Result value>
7.00 to 8.00

$$$$
